Target: T1, CathepsinG, from human neutrophils (human, UniProt P08311 21-244)
T1 sequence (looked up): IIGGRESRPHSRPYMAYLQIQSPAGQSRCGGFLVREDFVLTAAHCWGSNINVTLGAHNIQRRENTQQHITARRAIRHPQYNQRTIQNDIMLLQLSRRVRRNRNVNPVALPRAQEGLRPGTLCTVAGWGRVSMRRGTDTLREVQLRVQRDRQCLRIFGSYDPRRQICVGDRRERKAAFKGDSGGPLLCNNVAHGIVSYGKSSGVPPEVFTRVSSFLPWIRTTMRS
Experiment: cell-based or functional assay
Bridges are numbered along the chain shown (N, C = ends). [ ]: non-standard residue; d: D form. Nle = CCCC[C@H](N)C(=O)O
ENDPOINT_LABEL: IC50 (nmol)

Would you please look over these solved cases?
- cyclo(ICTKSDPAICR[dP]P) (disulfide 2-10) [Example 14]: 52
- XCTKSDPPICD (HELM PEPTIDE1{[Nle].C.T.K.S.D.P.P.I.C.D.[dP].P}$PEPTIDE1,PEPTIDE1,2:R3-10:R3|PEPTIDE1,PEPTIDE1,1:R1-13:R2$$$V2.0; SMILES CCCC[C@@H]1NC(=O)[C@@H]2CCCN2C(=O)[C@H]2CCCN2C(=O)[C@H](CC(=O)O)NC(=O)[C@@H]2CSSC[C@H](NC1=O)C(=O)N[C@@H]([C@@H](C)O)C(=O)N[C@@H](CCCCN)C(=O)N[C@@H](CO)C(=O)N[C@@H](CC(=O)O)C(=O)N1CCC[C@H]1C(=O)N1CCC[C@H]1C(=O)N[C@@H]([C@@H](C)CC)C(=O)N2) [Example 43]: 77
- FCTKSDPPXCS (HELM PEPTIDE1{F.C.T.K.S.D.P.P.[Nle].C.S.[dP].P}$PEPTIDE1,PEPTIDE1,2:R3-10:R3|PEPTIDE1,PEPTIDE1,1:R1-13:R2$$$V2.0; SMILES CCCC[C@@H]1NC(=O)[C@@H]2CCCN2C(=O)[C@@H]2CCCN2C(=O)[C@H](CC(=O)O)NC(=O)[C@H](CO)NC(=O)[C@H](CCCCN)NC(=O)[C@H]([C@@H](C)O)NC(=O)[C@@H]2CSSC[C@H](NC1=O)C(=O)N[C@@H](CO)C(=O)N1CCC[C@@H]1C(=O)N1CCC[C@H]1C(=O)N[C@@H](Cc1ccccc1)C(=O)N2) [Example 15]: 56
- XCTKSDPPICY (HELM PEPTIDE1{[Cha].C.T.K.S.D.P.P.I.C.Y.[dP].P}$PEPTIDE1,PEPTIDE1,2:R3-10:R3|PEPTIDE1,PEPTIDE1,1:R1-13:R2$$$V2.0; SMILES CC[C@H](C)[C@@H]1NC(=O)[C@@H]2CCCN2C(=O)[C@@H]2CCCN2C(=O)[C@H](CC(=O)O)NC(=O)[C@H](CO)NC(=O)[C@H](CCCCN)NC(=O)[C@H]([C@@H](C)O)NC(=O)[C@@H]2CSSC[C@H](NC1=O)C(=O)N[C@@H](Cc1ccc(O)cc1)C(=O)N1CCC[C@@H]1C(=O)N1CCC[C@H]1C(=O)N[C@@H](CC1CCCCC1)C(=O)N2) [Example 36]: 41
- XCTKSDPPICS (HELM PEPTIDE1{[O=C([C@@H](N[*:1])C1CCCCC1)[*:2]].C.T.K.S.D.P.P.I.C.S.[dP].P}$PEPTIDE1,PEPTIDE1,2:R3-10:R3|PEPTIDE1,PEPTIDE1,1:R1-13:R2$$$V2.0; SMILES CC[C@H](C)[C@@H]1NC(=O)[C@@H]2CCCN2C(=O)[C@@H]2CCCN2C(=O)[C@H](CC(=O)O)NC(=O)[C@H](CO)NC(=O)[C@H](CCCCN)NC(=O)[C@H]([C@@H](C)O)NC(=O)[C@@H]2CSSC[C@H](NC1=O)C(=O)N[C@@H](CO)C(=O)N1CCC[C@@H]1C(=O)N1CCC[C@H]1C(=O)N[C@@H](C1CCCCC1)C(=O)N2) [Example 11]: 95
- FCTKSDPPICD (HELM PEPTIDE1{F.C.T.K.S.D.P.P.I.C.D.[dP].P}$PEPTIDE1,PEPTIDE1,2:R3-10:R3|PEPTIDE1,PEPTIDE1,1:R1-13:R2$$$V2.0; SMILES CC[C@H](C)[C@@H]1NC(=O)[C@@H]2CCCN2C(=O)[C@@H]2CCCN2C(=O)[C@H](CC(=O)O)NC(=O)[C@H](CO)NC(=O)[C@H](CCCCN)NC(=O)[C@H]([C@@H](C)O)NC(=O)[C@@H]2CSSC[C@H](NC1=O)C(=O)N[C@@H](CC(=O)O)C(=O)N1CCC[C@@H]1C(=O)N1CCC[C@H]1C(=O)N[C@@H](Cc1ccccc1)C(=O)N2) [Example 2]: 84
- FCTKSDPPICS (HELM PEPTIDE1{F.C.T.K.S.D.P.P.I.C.S.[dI].P}$PEPTIDE1,PEPTIDE1,2:R3-10:R3|PEPTIDE1,PEPTIDE1,1:R1-13:R2$$$V2.0; SMILES CC[C@@H](C)[C@H]1NC(=O)[C@H](CO)NC(=O)[C@@H]2CSSC[C@H](NC(=O)[C@H](Cc3ccccc3)NC(=O)[C@@H]3CCCN3C1=O)C(=O)N[C@@H]([C@@H](C)O)C(=O)N[C@@H](CCCCN)C(=O)N[C@@H](CO)C(=O)N[C@@H](CC(=O)O)C(=O)N1CCC[C@H]1C(=O)N1CCC[C@H]1C(=O)N[C@@H]([C@@H](C)CC)C(=O)N2) [Example 73]: 89

I. cyclo([Nle]CTKSDPPICT[dP]P) (disulfide 2-10) [Example 42]
II. cyclo(FCTKSDPPICS[dN]P) (disulfide 2-10) [Example 69]
## Input For the two items I and II , which reports the higher IC50 value? # respond with the chosen item's label
## Output II

The measurements presented in this section are drawn from patent US20140213531A1.
